- Test system: Barnyard grass (BG)
- Assay procedure: Post-emergence herbicide test
- Type: in vivo
- Particulars: Echinochloa crus-galli, 336 h, 4 lb/acre, two weeks after treatment
- Method: Barnyard grass (BG)--Echinochloa crus-galli All crop and weed species were planted individually in 3' plastic pots containing potting soil. Four seeds each of corn, cotton, and snapbeans were seeded to a depth equal to the diameter of the seed. All other species were surface seeded and sprinkled with screened soil in an amount sufficient to cover the seed. Immediately after planting, all pots were watered by sub-irrigation in greenhouse trays. […]
Please go through the items and note down their pest or weed control at 4483.4 g/ha.
Numbers only, in %.

Some compounds with recorded pest or weed control at 4483.4 g/ha:
Compound: CCCCCCSc1nnc(NC(=O)NC)s1
Endpoint name: pest or weed control at 4483.4 g/ha
Reported measurement: 40
//
Compound: CCCCCSc1nnc(NC(=O)NC)s1
Endpoint name: pest or weed control at 4483.4 g/ha
Reported measurement: 70
//
Compound: CCCSc1nnc(N(C)C(=O)N(C)C)s1
Endpoint name: pest or weed control at 4483.4 g/ha
Reported measurement: 70
//
Compound: CNC(=O)Nc1nnc(SC)s1
Endpoint name: pest or weed control at 4483.4 g/ha
Reported measurement: 100
//
Compound: CCCCCS(=O)(=O)c1nnc(NC(=O)NC)s1
Endpoint name: pest or weed control at 4483.4 g/ha
Reported measurement: 60

Lab note: each compound below needs its pest or weed control at 4483.4 g/ha filled in.
1. CN(C)C(=O)Nc1nnc(C(F)(F)F)s1
2. CN(C)C(=O)N(C)c1nnc(C(F)(F)F)s1
3. CNC(=O)Nc1nnc(C(F)(F)F)s1
4. CCCCCCS(=O)(=O)c1nnc(NC(=O)NC)s1
5. CNC(=O)N(C)c1nnc(C(F)(F)F)s1
6. CNC(=O)Nc1nnc(S(C)(=O)=O)s1

a:
[90, 60, 100, 20, 100, 70]
